assay: Acute toxicity (mice); conditions: mouse, in vivo, ip, read-out: Toxicity (mice) LD 50
readout kind: LD50

{"columns": ["compound", "readout kind", "reported result"],
 "data": [
  ["CCOc1cc(N)c(Br)cc1C(=O)N[C@@H]1C[C@H]2CC[C@@H](C1)N2Cc1ccc(Cl)cc1 [compound 123]", "LD50", "> 400 mg/kg"],
  ["CCOc1c(OC)cccc1C(=O)N[C@@H]1C[C@H]2CC[C@@H](C1)N2Cc1ccc(Cl)c(Cl)c1 [compound 145]", "LD50", "> 400 mg/kg"],
  ["CCOc1cc(N)c(Br)cc1C(=O)N[C@@H]1C[C@H]2CC[C@@H](C1)N2Cc1cccc(Cl)c1 [compound 126]", "LD50", "> 400 mg/kg"]
]}

The measurements presented in this section are drawn from patent US4434170A.
